experimental_target: TLR8 (Homo sapiens, UniProt Q9NR97)
method_notes: NF-κB-luciferase reporter activation in HEK293-TLR8 cells, 10 μM IRM (Example 1)
Type: cell-based
Design: expressed in transfected cells; host or cells: HEK293 (ATCC CRL-1573), pIRES vector, G-418 selected, co-transfected with NFkB-luc reporter
test_context: 16 hours, luciferase signal, TLR8-transfected cells
# Fold Increase Over DMSO Control, HEK293-TLR8 >= 10 fold gives Fulfilled, anything below gives Not fulfilled

Examples with answers:
## Task Check if Fold Increase Over DMSO Control, HEK293-TLR8 >= 10 fold (inclusive). Item: Nc1nc2ccccc2c2c1ncn2CCCCNC(=O)c1ccccc1Oc1ccccc1
## Result Fulfilled

## Task Check if Fold Increase Over DMSO Control, HEK293-TLR8 >= 10 fold (inclusive). Item: COCCc1nc2c(N)nc3ccccc3c2n1CCOCCNC(=O)Nc1ccccc1
## Result Not fulfilled

Continuing:
## Task Check if Fold Increase Over DMSO Control, HEK293-TLR8 >= 10 fold (inclusive). Item: CCCCNC(=O)NCCCCn1c(CCCC)nc2c(N)nc3cccnc3c21
## Result Not fulfilled

###

In this section we review reported Fold Increase Over DMSO Control, HEK293-TLR8 / HEK293-vector values for a set of compounds.
experimental_target: TLR8 (Homo sapiens)
method_notes: NF-κB-luciferase reporter activation in HEK293-TLR8 cells, 10 μM IRM (Example 1)
Assay type: cell-based
Set-up: expressed in transfected cells; host or cells: HEK293 (ATCC CRL-1573), pIRES vector, G-418 selected, co-transfected with NFkB-luc reporter
test_context: ratio of TLR8-transfected to vector-transfected cells
The answer should be a number; do not append a unit.

## Task Using known records, supply Fold Increase Over DMSO Control, HEK293-TLR8 / HEK293-vector for CCCCc1nc2c(N)nc3cccnc3c2n1CCNC(=O)C(N)CC(C)C (centres unmarked)
## Result 7.8

## Task Using known records, supply Fold Increase Over DMSO Control, HEK293-TLR8 / HEK293-vector for CCOCc1nc2c(N)nc3ccccc3c2n1CCOCCNC(=O)NC1CCCCC1
## Result 2.3

## Task Using known records, supply Fold Increase Over DMSO Control, HEK293-TLR8 / HEK293-vector for COCCc1nc2c(N)nc3ccccc3c2n1CC(C)(C)O
## Result 8.8

## Task Using known records, supply Fold Increase Over DMSO Control, HEK293-TLR8 / HEK293-vector for Nc1nc2ccccc2c2c1ncn2CCCCNC(=O)c1ccccc1Oc1ccccc1
## Result 10.5

Continuing:
## Task Using known records, supply Fold Increase Over DMSO Control, HEK293-TLR8 / HEK293-vector for CCOCc1nc2c(N)nc3ccccc3c2n1CC(C)(C)N
## Result 2.1

###

experimental_target: TLR8 (Homo sapiens)
Sequence (Q9NR97 27-1041): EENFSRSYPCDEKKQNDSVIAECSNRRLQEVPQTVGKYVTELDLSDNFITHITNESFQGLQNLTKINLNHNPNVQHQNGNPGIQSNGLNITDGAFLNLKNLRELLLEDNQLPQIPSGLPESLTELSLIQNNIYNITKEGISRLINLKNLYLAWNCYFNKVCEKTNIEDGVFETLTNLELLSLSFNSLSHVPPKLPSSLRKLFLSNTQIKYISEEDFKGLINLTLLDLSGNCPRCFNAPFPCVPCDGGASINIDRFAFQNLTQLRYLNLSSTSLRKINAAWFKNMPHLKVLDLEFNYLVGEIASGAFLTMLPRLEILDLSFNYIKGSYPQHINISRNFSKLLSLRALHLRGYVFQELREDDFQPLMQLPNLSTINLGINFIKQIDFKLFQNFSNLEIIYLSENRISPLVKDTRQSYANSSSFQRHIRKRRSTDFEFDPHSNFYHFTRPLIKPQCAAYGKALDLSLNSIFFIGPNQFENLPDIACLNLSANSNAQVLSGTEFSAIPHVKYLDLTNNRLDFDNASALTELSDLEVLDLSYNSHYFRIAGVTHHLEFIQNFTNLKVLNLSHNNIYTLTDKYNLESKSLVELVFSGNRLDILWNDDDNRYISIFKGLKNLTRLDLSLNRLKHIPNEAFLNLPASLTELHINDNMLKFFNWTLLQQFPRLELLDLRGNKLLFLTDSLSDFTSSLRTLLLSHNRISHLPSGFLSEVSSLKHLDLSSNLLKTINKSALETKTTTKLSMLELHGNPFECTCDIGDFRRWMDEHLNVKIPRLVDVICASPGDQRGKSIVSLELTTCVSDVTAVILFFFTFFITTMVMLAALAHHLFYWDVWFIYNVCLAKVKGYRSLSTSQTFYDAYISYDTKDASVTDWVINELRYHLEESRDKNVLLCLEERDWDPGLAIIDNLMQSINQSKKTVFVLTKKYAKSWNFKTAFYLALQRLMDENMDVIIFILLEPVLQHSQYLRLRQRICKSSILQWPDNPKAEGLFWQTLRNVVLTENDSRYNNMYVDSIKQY
method_notes: Dose dependent TLR8-mediated NF-κB-luciferase response in HEK293 cells transfected with TLR8 (Example 5)
Type: cell-based
Set-up: expressed in transfected cells; host or cells: HEK293 (ATCC CRL-1573), pIRES vector, G-418 selected, co-transfected with NFkB-luc reporter
test_context: 30 μM
measurement_label: Fold increase over vehicle (fold)
Respond numerically; units are fold and should not be typed.

## Task Using known records, supply Fold increase over vehicle for CCOCc1nc2c(N)nc3cc(-c4cccnc4)ccc3c2n1CC(O)CO (stereo not drawn)
## Result 12.5

Continuing:
## Task Using known records, supply Fold increase over vehicle for CCOCc1nc2c(N)nc3cc(-c4ccncc4)ccc3c2n1CC(C)(C)O
## Result 27.9

## Task Using known records, supply Fold increase over vehicle for CCCCc1nc2c(N)nc3ccccc3c2n1CCS(=O)(=O)CC
## Result 26.0

## Task Using known records, supply Fold increase over vehicle for CCOCc1nc2c(N)nc3cc(-c4ccc(C(=O)N(C)OC)cc4)ccc3c2n1CC(C)(C)O
## Result 9.4

## Task Using known records, supply Fold increase over vehicle for CCOCc1nc2c(N)nc3ccccc3c2n1CC(C)(C)NC(=O)NC(C)C
## Result 12.5

## Task Using known records, supply Fold increase over vehicle for COCCc1nc2c(N)nc3ccccc3c2n1CCCCNC(=O)c1cnc2ccccc2c1
## Result 11.8

## Task Using known records, supply Fold increase over vehicle for COCCc1nc2c(N)nc3c(c2n1CCOCCNC(=O)Nc1ccccc1)CCCC3
## Result 25.4

## Task Using known records, supply Fold increase over vehicle for CCc1nc2c(N)nc3ccccc3c2n1CCS(C)(=O)=O
## Result 12.5

## Task Using known records, supply Fold increase over vehicle for CCCCc1nc2c(N)nc3ccccc3c2n1CCCNC(=O)N1CCOCC1
## Result 18.0

###

In this section we review reported Fold increase over vehicle values for a set of molecules.
experimental_target: TLR8 (Homo sapiens)
Sequence (Q9NR97 27-1041): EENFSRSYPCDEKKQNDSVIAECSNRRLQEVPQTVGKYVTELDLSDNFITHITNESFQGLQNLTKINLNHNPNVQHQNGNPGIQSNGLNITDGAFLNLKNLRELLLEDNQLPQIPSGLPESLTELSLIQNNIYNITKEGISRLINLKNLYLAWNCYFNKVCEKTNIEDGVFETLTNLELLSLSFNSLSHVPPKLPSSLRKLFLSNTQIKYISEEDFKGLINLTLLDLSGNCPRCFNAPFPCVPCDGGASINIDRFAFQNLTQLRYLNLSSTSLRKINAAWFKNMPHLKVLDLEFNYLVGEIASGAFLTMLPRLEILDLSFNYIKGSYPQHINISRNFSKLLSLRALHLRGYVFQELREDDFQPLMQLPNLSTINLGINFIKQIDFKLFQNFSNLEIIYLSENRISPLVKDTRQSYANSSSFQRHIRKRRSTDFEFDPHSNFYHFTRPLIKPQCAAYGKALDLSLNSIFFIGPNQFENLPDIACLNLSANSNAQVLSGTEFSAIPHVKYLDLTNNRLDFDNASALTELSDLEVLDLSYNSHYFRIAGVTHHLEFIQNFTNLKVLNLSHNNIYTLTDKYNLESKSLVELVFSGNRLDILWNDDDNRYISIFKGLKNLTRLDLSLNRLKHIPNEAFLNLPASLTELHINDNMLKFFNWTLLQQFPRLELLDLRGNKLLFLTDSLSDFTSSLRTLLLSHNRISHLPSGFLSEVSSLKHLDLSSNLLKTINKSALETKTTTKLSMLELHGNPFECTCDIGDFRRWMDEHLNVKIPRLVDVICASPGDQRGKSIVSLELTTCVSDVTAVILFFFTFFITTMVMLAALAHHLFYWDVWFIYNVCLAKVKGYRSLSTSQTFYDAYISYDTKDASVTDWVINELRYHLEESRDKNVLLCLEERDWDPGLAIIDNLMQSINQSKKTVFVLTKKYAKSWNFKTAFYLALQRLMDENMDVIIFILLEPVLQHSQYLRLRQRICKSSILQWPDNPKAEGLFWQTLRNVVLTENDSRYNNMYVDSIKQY
method_notes: Dose dependent TLR8-mediated NF-κB-luciferase response in HEK293 cells transfected with TLR8 (Example 5)
Format: cell-based
Set-up: expressed in transfected cells; host or cells: HEK293 (ATCC CRL-1573), pIRES vector, G-418 selected, co-transfected with NFkB-luc reporter
test_context: 1.0 μM
Respond numerically; units are fold and should not be typed.

Some solved entries appear below for comparison.
## Task Consider the molecule COCCc1nc2c(N)nc3ccccc3c2n1CCCCNC(=O)c1cnc2ccccc2n1 [IRM38] tested on TLR8 (Homo sapiens); state its Fold increase over vehicle.
## Result 1.3

## Task Consider the molecule CCCCc1nc2c(N)nc3ccccc3c2n1CC(C)(C)CNC(=O)N1CCOCC1 [IRM46] tested on TLR8 (Homo sapiens); state its Fold increase over vehicle.
## Result 1.4

## Task Consider the molecule CCc1nc2c(N)nc3cc(-c4ccncc4)ccc3c2n1CC(C)(C)O [IRM59] tested on TLR8 (Homo sapiens); state its Fold increase over vehicle.
## Result 2.1

Continuing:
## Task Consider the molecule COCCc1nc2c(N)nc3c(c2n1CCOCCNC(=O)Nc1ccccc1)CCCC3 [IRM41] tested on TLR8 (Homo sapiens); state its Fold increase over vehicle.
## Result 1.0

## Task Consider the molecule CCc1nc2c(N)nc3ccccc3c2n1CCS(C)(=O)=O [IRM44] tested on TLR8 (Homo sapiens); state its Fold increase over vehicle.
## Result 1.0
